target: hemagglutinin of A/Indonesia/5/05 (H5N1, clade 2) (influenza A virus A/Indonesia/5/05 (H5N1)); test: cell-based or functional assay
Property: IC50, neutralisation of retroviral pseudotypes; scope: individual binders
For clarity, give the value followed by its unit.

# count of solved cases: 2
| binder | result |
| --- | --- |
| FLD122 (antibody, V domains shown) VH: QFQLVQSGPEVKKPGTSVKVSCKASGYTSTTYGISWVRQVPGQGLEWMGWINPYNGNPHYGQKFQGRVTLTRDTSTNTAYLEILSLRSDDTAVYYCARDGWGQQLVPYYFDYWGQGTLVTVSS VL: DIVMTQSPLSLPVTPGEPASISCRASQSLLHSNGYNYLDWYLQKPGQSPQLLIQLGSTRASGVPDRFSGSGSGTDFTLEISRVEAEDVGVYYCMQALQLPLAFGQGTRLEIK | 0.004 µg/mL |
| FLD93 (antibody, V domains shown) VH: WWQLVQSGAEVKKPGSSVKVSCKASGGTFSSYDISWVRQAPGQGLEWMGGIIPIYGTANYAQKFQGRVTITADESTSTAYMELSSLRSEDTAVYYCARAGGDSSGYYGALGRFFQHWGQGTLVTVSS VL: VIWMTQSPSLLSASTGDRVTISCRMSQGISSYLAWYQQKPGKAPELLIHTAYTLKSGVPSRFSGSGSGKDFTLTISGLQSEDFATYYCQQYYSFPYTFGQGTKVEIK | 0.059 µg/mL |

Okay, now this binder:
Entry under test: FLD20.19 (antibody, V domains shown) VH: QVQLVQSGAEVKKPGSSVTVSCKASGGTFSNYGISWVRQAPGQGLDWMGGIIPLFGTANYAQKFQGRVTITADESTSSSNMELSSLRSEDTAVYYCARDVHNYDFLTGYPLHLYGMDVWGQGTTVTVSS VL: DIQMTQSPSSLSASVGDRVTITCRASQSISTYLNWYQQKPGIPPKLLINVASSLQSGVPSRFSGSGSGTDFTLTISSLQPEDFASYYCQQTYSSPPTFGQGTKVEIK . Its IC50, neutralisation of retroviral pseudotypes was 0.077 µg/mL
